- Tested on: A549 (lung carcinoma)
- assay: In vitro antiproliferation assay, A549 cells (TABLE 1 6 point assay; TABLE 2)
- Type: cell-based
- assay-conditions: 6 point assay; A549 cells; Bis Hydrochloride Salt; read-out: IC50, A549 cells
pIC50: −log10 of the molar value. Structures can show the parent of a compound that is named as a salt.
value-kind: pIC50

Query: Item: CCS(=O)(=O)N1CCN(c2ccc(Nc3ncc(F)c(N[C@H]4[C@@H](C(N)=O)[C@@H]5C=C[C@H]4C5)n3)cc2C)CC1 [compound 270, Bis Hydrochloride Salt] Test system: A549 (lung carcinoma) Read-out: pIC50 Value: ?
Result: 5.00 to 6.00

###

- Test system: PC3 (prostate adenocarcinoma)
- assay: In vitro antiproliferation assay, PC3 cells
- Type: cell-based
value-kind: IC50

Query: Return reported IC50; argument: Cc1cc(Nc2ncc(F)c(NC3C4C=CC(C4)C3C(N)=O)n2)ccc1N1CCN(C)CC1 (racemic) [Compound 60]
Result: ≤ 20 nM

###

- Tested on: A549 (lung carcinoma)
- assay: In vitro antiproliferation assay, A549 cells (TABLE 1 6 point assay; TABLE 2)
- Assay type: cell-based
- assay-conditions: Homo sapiens, A549, 6 point assay; A549 cells; read-out: IC50, A549 cells
Below, each of the molecules is paired with its reported IC50 value.

Illustrative cases are given below, each with its answer.
molecule=NC(=O)[C@@H]1[C@H](Nc2nc(Nc3ccc(C4CCNCC4)cc3)ncc2F)[C@H]2C=C[C@@H]1C2 value_kind=IC50 observed_result="≤ 100 nM"
molecule=Cc1cc(Nc2ncc(F)c(N[C@@H]3[C@H](C(=O)NC4CCC4)[C@H]4C=C[C@@H]3C4)n2)ccc1N1CCN(C)CC1 value_kind=IC50 observed_result="> 10000 nM"

Query: Return reported IC50; argument: CN1CCN(c2ccc(Nc3ncc(F)c(NC4CCCC4C(N)=O)n3)cc2)CC1 (centres unmarked)
Result: 100 to 1000 nM

Query: Return reported IC50; argument: Cc1cc(Nc2ncc(F)c(NC3C4C=CC(C4)C3C(N)=O)n2)ccc1N1CC2CC1CC2C (racemic)
Result: ≤ 100 nM

Query: Return reported IC50; argument: `Cc1cc(Nc2ncc(F)c(N[C@@H]3CCC[C@H]3C(=O)O)n2)ccc1N1CCN(C)CC1`
Result: > 10000 nM

Query: Return reported IC50; argument: CN1CCN(c2ccc(Nc3ncc(F)c(NC4C5C=CC(C5)C4C(N)=O)n3)cc2C(N)=O)CC1 (racemic)
Result: 100 to 1000 nM

Query: Return reported IC50; argument: Cc1cc(Nc2ncc(F)c(NC3CCCC3C(N)=O)n2)cc(C)c1O (centres unmarked)
Result: 100 to 1000 nM

Query: Return reported IC50; argument: NC(=O)C1C2C=CC(C2)C1Nc1nc(Nc2cccc(C3CCNCC3)c2)ncc1F (racemic)
Result: ≤ 100 nM

Query: Return reported IC50; argument: Cc1cc(Nc2ncc(F)c(NC3CCCC3C(N)=O)n2)ccc1N1CCN(C)CC1 (racemic) [Compound 15]
Result: 100 to 1000 nM

Query: Return reported IC50; argument: CN1CCC(c2ccc(Nc3ncc(F)c(NC4C5C=CC(C5)C4C(N)=O)n3)cc2)CC1 (racemic)
Result: ≤ 100 nM

Query: Return reported IC50; argument: Cc1cc(Nc2ncc(F)c(NC3C4CCC(C4)C3C(=O)NC3CC3)n2)ccc1N1CCN(C)CC1 (racemic)
Result: ≤ 100 nM

Query: Return reported IC50; argument: Cc1cc(Nc2ncc(F)c(NC3C4C=CC(C4)C3C(N)=O)n2)ccc1N1CCN(C2CCCCC2)CC1 (racemic)
Result: ≤ 100 nM

Query: Return reported IC50; argument: `Cc1cc(Nc2ncc(F)c(N[C@H]3CC[C@@H](C(=O)O)C3)n2)ccc1N1CCN(C)CC1`
Result: > 10000 nM

Query: Return reported IC50; argument: `Cc1cc(Nc2ncc(F)c(NC3(C(N)=O)CC=CC3)n2)ccc1N1CCN(C)CC1`
Result: 1000 to 10000 nM

###

Below, each of the compounds is paired with its reported IC50 value.
- Tested on: A549 (lung carcinoma)
- assay: In vitro antiproliferation assay, A549 cells (TABLE 1 6 point assay; TABLE 2)
- Format: cell-based
- assay-conditions: Homo sapiens, A549, 6 point assay; A549 cells; read-out: IC50, A549 cells

compound=Cc1cc(Nc2ncc(F)c(NC3(C(=O)NC4CC4)CCCC3)n2)ccc1N1CCN(C)CC1 observed_result="> 10000 nM"
compound="CCOC(=O)N1CCN(c2ccc(Nc3ncc(F)c(NC4CCCC4C(N)=O)n3)cc2)CC1 (stereo not shown)" observed_result="100 to 1000 nM"
compound="Cc1cc(Nc2ncc(F)c(NC3C4C=CC(C4)C3C(N)=O)n2)ccc1N1CCN(C(C)C)CC1 (racemic)" observed_result="≤ 100 nM"

Query: Return reported IC50; argument: Cc1cc(Nc2ncc(F)c(N[C@@H]3CC=CC[C@H]3C(N)=O)n2)ccc1N1CCN(C)CC1 (racemic)
Result: > 10000 nM

###

- System: A549 (lung carcinoma)
- assay: In vitro antiproliferation assay, A549 cells (TABLE 1 6 point assay; TABLE 2)
- Type: cell-based
- assay-conditions: Homo sapiens, A549, 6 point assay; A549 cells; read-out: IC50, A549 cells
pIC50: −log10 of the molar value.
Below, each of the compounds is paired with its reported pIC50 value.

compound="CN1CCN(C(=O)c2ccc(Nc3ncc(F)c(N[C@H]4CCC[C@H]4C(N)=O)n3)cc2)CC1 (racemic)" value_kind=pIC50 observed_result="5.00 to 6.00"

Query: Return reported pIC50; argument: NC(=O)C1C2C=CC(C2)C1Nc1nc(Nc2ccc(C3CCNCC3)cc2)ncc1F (racemic)
Result: ≥ 7.00

Query: Return reported pIC50; argument: `NC(=O)[C@@H]1[C@H](Nc2nc(Nc3cccc(C4CCNCC4)c3)ncc2F)[C@H]2C=C[C@@H]1C2`
Result: ≥ 7.00

Query: Return reported pIC50; argument: NC(=O)C1CCCC1Nc1nc(Nc2cccc(N3CCOCC3)c2)ncc1F (stereo not shown)
Result: 6.00 to 7.00

###

- System: U2OS (bone osteosarcoma)
- assay: In vitro antiproliferation assay, U2OS cells
- Format: cell-based
- assay-conditions: U20S
value-kind: IC50

Query: Return reported IC50; argument: Cc1cc(Nc2ncc(F)c(NC3C4C=CC(C4)C3C(N)=O)n2)ccc1N1CCN(C)CC1 (racemic)
Result: ≤ 20 nM

###

- System: MiaPaCa-2 (pancreatic carcinoma)
- assay: In vitro antiproliferation assay, MiaPaCa-2 cells
- Type: cell-based
- assay-conditions: Homo sapiens, MIA PaCa-2; Miapaca2; read-out: In Vitro IC50
pIC50: −log10 of the molar value.
Below, each of the compounds is paired with its reported pIC50 value.

Illustrative cases are given below, each with its answer.
compound="Cc1cc(Nc2ncc(F)c(N[C@H]3[C@@H](C(N)=O)[C@@H]4C=C[C@H]3C4)n2)ccc1N1CCN(C)CC1 (single isomer, unassigned) [Compound 60a]" observed_result="≥ 8.00"
compound=Cc1cc(Nc2ncc(F)c(N[C@@H]3CCC[C@@H]3C(N)=O)n2)ccc1N1CCN(C)CC1 observed_result="≥ 6.00"
compound="Cc1cc(Nc2ncc(F)c(NC3C(C(N)=O)[C@H]4C=C[C@@H]3C4)n2)ccc1N1CCN(C)CC1 (stereo in doubt) [Compound 60b]" observed_result="< 6.00"

Query: Return reported pIC50; argument: Cc1cc(Nc2ncc(F)c(N[C@H]3[C@@H](C(N)=O)[C@@H]4C=C[C@H]3C4)n2)ccc1N1CCN(C)CC1 [compound 234]
Result: ≥ 8.00

Query: Return reported pIC50; argument: Cc1cc(Nc2ncc(F)c(NC3C4C=CC(C4)C3C(N)=O)n2)ccc1N1CCN(C)CC1 (racemic)
Result: ≥ 8.00

###

- Test system: H1299 (non-small cell lung carcinoma)
- assay: In vitro antiproliferation assay, H1299 cells (TABLE 1 6 point assay; TABLE 2)
- Assay type: cell-based
- assay-conditions: Homo sapiens, NCI-H1299, 6 point assay; H1299 cells; read-out: IC50, H1299 cells
- Experimental: Certain compounds were tested against other cell types for their ability to inhibit proliferation in standard antiproliferation assays.
pIC50: −log10 of the molar value.
Below, each of the compounds is paired with its reported pIC50 value.

Illustrative cases are given below, each with its answer.
compound="CC(=O)N1CCN(c2ccc(Nc3ncc(F)c(NC4CCCC4C(N)=O)n3)cc2)CC1 (stereo not shown)" tested_target="H1299 (non-small cell lung carcinoma)" observed_result="6.00 to 7.00"
compound=CCOC(=O)[C@@H]1CCC[C@H]1Nc1nc(Nc2ccc(N3CCN(C)CC3)c(C)c2)ncc1F tested_target="H1299 (non-small cell lung carcinoma)" observed_result="5.00 to 6.00"
compound="NC(=O)C1CCCC1Nc1nc(Nc2ccc(N3CCOCC3)cc2)ncc1F (stereo not shown)" tested_target="H1299 (non-small cell lung carcinoma)" observed_result="6.00 to 7.00"
compound="Cc1cc(Nc2ncc(F)c(N[C@H]3C=CCC[C@H]3C(N)=O)n2)ccc1N1CCN(C)CC1 (racemic)" tested_target="H1299 (non-small cell lung carcinoma)" observed_result="5.00 to 6.00"
compound="CC(=O)N1CCN(c2cccc(Nc3ncc(F)c(NC4CCCC4C(N)=O)n3)c2)CC1 (stereo not shown)" tested_target="H1299 (non-small cell lung carcinoma)" observed_result="6.00 to 7.00"
compound="COC(=O)[C@@H]1CCC[C@@H]1Nc1nc(Nc2ccc(N3CCN(C)CC3)c(C)c2)ncc1F (racemic)" tested_target="H1299 (non-small cell lung carcinoma)" observed_result="5.00 to 6.00"
compound="Cc1cc(Nc2ncc(F)c(NC3C4C=CC(C4)C3C(N)=O)n2)ccc1N1CCSCC1 (racemic)" tested_target="H1299 (non-small cell lung carcinoma)" observed_result="≥ 7.00"
compound="Cc1ccc(Nc2ncc(F)c(NC3CCCC3C(N)=O)n2)cc1 (stereo not shown)" tested_target="H1299 (non-small cell lung carcinoma)" observed_result="5.00 to 6.00"

Query: Item: Cc1cc(Nc2ncc(F)c(NC3C4CC5CC(C4)CC3C5)n2)ccc1N1CCN(C)CC1 (stereo not shown) Test system: H1299 (non-small cell lung carcinoma) Read-out: pIC50 Value: ?
Result: 5.00 to 6.00

Query: Item: CN1CCN(c2ccc(Nc3ncc(F)c(NC4C5C=CC(C5)C4C(N)=O)n3)cc2C(N)=O)CC1 (racemic) Test system: H1299 (non-small cell lung carcinoma) Read-out: pIC50 Value: ?
Result: 6.00 to 7.00

Query: Item: CN1CCN(c2cccc(Nc3ncc(F)c(NC4C5C=CC(C5)C4C(N)=O)n3)c2)CC1 (racemic) Test system: H1299 (non-small cell lung carcinoma) Read-out: pIC50 Value: ?
Result: ≥ 7.00

Query: Item: `Cc1cc(Nc2ncc(F)c(NC3(C(=O)NC4CC4)CCCC3)n2)ccc1N1CCN(C)CC1` Test system: H1299 (non-small cell lung carcinoma) Read-out: pIC50 Value: ?
Result: < 5.00

Query: Item: CNC(=O)c1cc(Nc2ncc(F)c(NC3C4C=CC(C4)C3C(=O)OC)n2)ccc1N1CCN(C)CC1 (racemic) Test system: H1299 (non-small cell lung carcinoma) Read-out: pIC50 Value: ?
Result: 5.00 to 6.00

Query: Item: Cc1cc(Nc2ncc(F)c(N[C@@H]3CC=CC[C@H]3C(N)=O)n2)ccc1N1CCN(C)CC1 (racemic) Test system: H1299 (non-small cell lung carcinoma) Read-out: pIC50 Value: ?
Result: < 5.00

Query: Item: Cc1cc(Nc2ncc(F)c(N[C@H]3[C@@H](C(N)=O)[C@@H]4C=C[C@H]3C4)n2)ccc1N1CCN(C)CC1 (single isomer, unassigned) [Compound 60a] Test system: H1299 (non-small cell lung carcinoma) Read-out: pIC50 Value: ?
Result: ≥ 7.00

Query: Item: CN1CCN(c2cccc(Nc3ncc(F)c(NC4CCCC4C(N)=O)n3)c2)CC1 (stereo not shown) Test system: H1299 (non-small cell lung carcinoma) Read-out: pIC50 Value: ?
Result: 6.00 to 7.00

Query: Item: `Cc1cc(Nc2ncc(F)c(NC3CC=CC3)n2)ccc1N1CCN(C)CC1` Test system: H1299 (non-small cell lung carcinoma) Read-out: pIC50 Value: ?
Result: 5.00 to 6.00

Query: Item: Cc1cc(Nc2ncc(F)c(NC3CCCC3C(N)=O)n2)cc(C)c1O (stereo not shown) Test system: H1299 (non-small cell lung carcinoma) Read-out: pIC50 Value: ?
Result: 6.00 to 7.00

Query: Item: `COC(=O)[C@H]1CCC[C@@H]1Nc1nc(Nc2ccc(N3CCN(C)CC3)c(C)c2)ncc1F` Test system: H1299 (non-small cell lung carcinoma) Read-out: pIC50 Value: ?
Result: 5.00 to 6.00

Query: Item: CCOC(=O)N1CCN(c2ccc(Nc3ncc(F)c(NC4CCCC4C(N)=O)n3)cc2)CC1 (stereo not shown) Test system: H1299 (non-small cell lung carcinoma) Read-out: pIC50 Value: ?
Result: 6.00 to 7.00

Query: Item: CN1CCN(c2ccc(Nc3ncc(F)c(NC4C5C=CC(C5)C4C(N)=O)n3)cc2F)CC1 (racemic) Test system: H1299 (non-small cell lung carcinoma) Read-out: pIC50 Value: ?
Result: ≥ 7.00

Query: Item: Cc1cc(Nc2ncc(F)c(NC3C4C=CC(C4)C3C(N)=O)n2)ccc1N1CCN(C2CCCCC2)CC1 (racemic) Test system: H1299 (non-small cell lung carcinoma) Read-out: pIC50 Value: ?
Result: ≥ 7.00

Query: Item: `Cc1cc(Nc2ncc(F)c(N[C@H]3CCC[C@@H]3C(=O)O)n2)ccc1N1CCN(C)CC1` Test system: H1299 (non-small cell lung carcinoma) Read-out: pIC50 Value: ?
Result: < 5.00

Query: Item: Cc1cc(Nc2ncc(F)c(N[C@H]3CCC[C@H]3C(N)=O)n2)ccc1N1CC2CC1CN2C (mixture of isomers) Test system: H1299 (non-small cell lung carcinoma) Read-out: pIC50 Value: ?
Result: 6.00 to 7.00

Query: Item: `NC(=O)[C@@H]1[C@H](Nc2nc(Nc3cccc(C4CCNCC4)c3)ncc2F)[C@H]2C=C[C@@H]1C2` Test system: H1299 (non-small cell lung carcinoma) Read-out: pIC50 Value: ?
Result: ≥ 7.00
